What Cmax was measured for each of the following?
Assay: Cmax in mouse at 3 mg/kg, po
Format: ADME, organism-based
Design: dose 3 mg/kg, route oral
Settings: in vivo
Answers are plain numbers, in µM.

For each listed entry, give its Cmax.
1. Nc1cc(SCc2ccccc2F)c2nn[nH]c2n1
2. Nc1nc(OCc2ccccc2)c2[nH]nnc2n1

## Result
17
31

###

What IC50 was measured for each of the following?
Target: Myeloperoxidase (Homo sapiens, UniProt P05164)
Sequence (P05164 165-273 limits assumed): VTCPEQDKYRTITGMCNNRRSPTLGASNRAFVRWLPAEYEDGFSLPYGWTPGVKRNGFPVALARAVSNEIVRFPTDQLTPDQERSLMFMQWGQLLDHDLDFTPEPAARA
Sequence (P05164 279-745 limits assumed): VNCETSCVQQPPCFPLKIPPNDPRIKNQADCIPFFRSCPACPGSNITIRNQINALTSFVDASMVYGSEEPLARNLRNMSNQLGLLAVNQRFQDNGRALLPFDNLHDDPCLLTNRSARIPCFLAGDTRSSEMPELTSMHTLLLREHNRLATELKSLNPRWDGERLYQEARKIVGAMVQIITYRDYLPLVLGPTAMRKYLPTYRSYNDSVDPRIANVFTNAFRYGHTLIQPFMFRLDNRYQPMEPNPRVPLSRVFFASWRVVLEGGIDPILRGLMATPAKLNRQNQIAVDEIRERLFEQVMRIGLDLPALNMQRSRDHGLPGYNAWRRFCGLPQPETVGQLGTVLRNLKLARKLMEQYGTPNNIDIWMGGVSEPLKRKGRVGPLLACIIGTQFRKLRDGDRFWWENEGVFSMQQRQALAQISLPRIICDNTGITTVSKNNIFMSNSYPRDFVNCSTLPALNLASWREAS
Test: Inhibition of human PMN leukocytes MPO peroxidation activity using H2O2 as substrate preincubated for 10 mins followed by H2O2 addition and measured for 15 mins by amplex red reagent based assay
Answers are plain numbers, in nM.

Known IC50 results, listed for orientation:
INSERT INTO results (smiles, reported_endpoint, number) VALUES
  ('Cn1ccc(-c2cccc(COc3cc(N)nc4[nH]nnc34)c2)n1', 'IC50', 21),
  ('Nc1cc(OCc2cn(-c3ccccc3)nn2)c2nn[nH]c2n1', 'IC50', 400),
  ('Nc1cc(OCc2ccccc2Cl)c2nn[nH]c2n1', 'IC50', 26),
  ('Nc1cc(OCc2ccc(Cl)cc2)c2nn[nH]c2n1', 'IC50', 26),
  ('Nc1cc(OCc2ccccc2-n2cccn2)c2nn[nH]c2n1', 'IC50', 26),
  ('Nc1cc(OCc2cccc(-c3cccc(F)c3)c2)c2nn[nH]c2n1', 'IC50', 21);

For each listed entry, give its IC50.
1. Nc1cc(OCc2ncc(-c3ccccc3)o2)c2nn[nH]c2n1
2. Nc1cc(SCc2nn(-c3ccccc3)nc2C(F)F)c2nn[nH]c2n1
3. Nc1cc(OCc2nn(-c3ccccc3)nc2CO)c2nn[nH]c2n1
4. CS(=O)(=O)c1ccccc1COc1cc(N)nc2[nH]nnc12
5. Nc1cc(OCc2c(Cl)cccc2Cl)c2nn[nH]c2n1
6. Cc1nn(-c2ccccc2)nc1COc1cc(N)nc2[nH]nnc12
7. Cn1cc(-c2cccc(COc3cc(N)nc4[nH]nnc34)c2)cn1

## Result
290
8.5
250
720
6.7
27
78

For each listed entry, give its IC50.
1. Nc1cc(OCc2ccccc2)c2nn[nH]c2n1
2. Nc1cc(OCc2cccc(Cl)c2)c2nn[nH]c2n1

## Result
36
21

For each listed entry, give its IC50.
1. Nc1cc(SCc2ccccc2F)c2nn[nH]c2n1
2. Nc1cc(OCc2cccc(-c3ccccc3F)c2)c2nn[nH]c2n1
3. Nc1cc(OCc2nn(-c3ccccc3)nc2C(F)F)c2nn[nH]c2n1
4. Cc1c(COc2cc(N)nc3[nH]nnc23)cccc1-c1ccn(C)n1
5. Cc1c(COc2cc(N)nc3[nH]nnc23)cccc1-c1cccc(F)c1
6. Nc1cc(SCc2c(Cl)cccc2Cl)c2nn[nH]c2n1
7. Nc1cc(OCc2cc(-c3cccc(F)c3)ccc2Cl)c2nn[nH]c2n1
8. Nc1cc(OCc2ccccc2F)c2nn[nH]c2n1

## Result
8.7
160
12
26
23
4.6
24
30

###

Molecular target: Thyroid peroxidase (Homo sapiens)
Sequence (P07202 whole entry): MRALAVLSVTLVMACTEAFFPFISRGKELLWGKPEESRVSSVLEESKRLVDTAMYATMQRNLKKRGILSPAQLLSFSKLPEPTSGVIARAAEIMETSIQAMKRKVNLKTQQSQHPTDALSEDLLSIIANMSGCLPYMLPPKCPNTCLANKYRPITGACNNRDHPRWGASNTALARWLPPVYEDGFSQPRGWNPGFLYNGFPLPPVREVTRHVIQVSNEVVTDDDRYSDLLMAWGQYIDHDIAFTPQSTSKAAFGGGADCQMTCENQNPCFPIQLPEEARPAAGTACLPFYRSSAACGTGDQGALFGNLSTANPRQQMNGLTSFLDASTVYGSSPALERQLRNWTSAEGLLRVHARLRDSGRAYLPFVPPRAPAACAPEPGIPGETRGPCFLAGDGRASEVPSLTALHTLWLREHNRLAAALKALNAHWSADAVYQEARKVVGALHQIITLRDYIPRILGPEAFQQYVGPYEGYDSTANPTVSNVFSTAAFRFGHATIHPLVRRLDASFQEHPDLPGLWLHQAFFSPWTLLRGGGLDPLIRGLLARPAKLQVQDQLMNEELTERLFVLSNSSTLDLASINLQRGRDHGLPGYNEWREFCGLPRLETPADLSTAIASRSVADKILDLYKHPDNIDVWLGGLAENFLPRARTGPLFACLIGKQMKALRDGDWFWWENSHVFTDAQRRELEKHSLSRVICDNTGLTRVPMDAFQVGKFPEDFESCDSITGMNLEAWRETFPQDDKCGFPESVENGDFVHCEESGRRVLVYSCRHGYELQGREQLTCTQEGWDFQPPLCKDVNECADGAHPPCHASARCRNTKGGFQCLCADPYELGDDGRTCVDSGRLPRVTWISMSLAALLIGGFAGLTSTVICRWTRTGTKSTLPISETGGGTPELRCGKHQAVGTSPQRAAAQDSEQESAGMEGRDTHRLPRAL
REPORTED_ENDPOINT: IC50 (µM)
One number for each entry, in µM.

## Task Specify IC50 for "Nc1cc(SCc2ccccc2F)c2nn[nH]c2n1" and stop.
## Result 4
